Assay: Proposed mechanism(s) of liver damage. [column 'MEC' in source]
Details: human
Metric Name: Hepatotoxicity (mechanism)

>  <Compound>
C=CCC1(C(C)C#CCC)C(=O)N=C(O)N(C)C1=O (configuration not stated)

>  <Obs Value>
Dose-dependant

$$$$
>  <Compound>
CC[C@H]1[C@@H]2C[C@H]3[C@@H]4N(C)c5ccccc5[C@]45C[C@@H]([C@@H]2[C@H]5O)N3[C@@H]1O

>  <Obs Value>
Allergic

$$$$
>  <Compound>
CCOC(=O)C1=C(COCCN)NC(C)=C(C(=O)OC)C1c1ccccc1Cl (configuration not stated)

>  <Obs Value>
Allergic

$$$$
>  <Compound>
CN1CCN(CCCN2c3ccccc3Sc3ccc(S(=O)(=O)N(C)C)cc32)CC1

>  <Obs Value>
Allergic

$$$$
>  <Compound>
Cn1c(=O)c2[nH]cnc2n(C)c1=O.O

>  <Obs Value>
Dose-dependant

$$$$
>  <Compound>
CC(=O)O[C@H]1C[C@@]2(C)[C@@H](C[C@@H](O)[C@H]3[C@@]4(C)CC[C@@H](O)[C@@H](C)[C@@H]4CC[C@@]32C)/C1=C(\CCC=C(C)C)C(=O)O

>  <Obs Value>
Dose-dependant

$$$$
>  <Compound>
C[C@@H]1C[C@H]2[C@@H]3CCC4=CC(=O)C=C[C@]4(C)C3=CC[C@]2(C)[C@H]1C(=O)CN1CCN(c2cc(N3CCCC3)nc(N3CCCC3)n2)CC1

>  <Obs Value>
Dose-dependant

$$$$
>  <Compound>
O=c1[nH]c2ccccc2n1CCCN1CCN(C(c2ccccc2)c2ccccc2)CC1 [OXATOMIDE]

>  <Obs Value>
Allergic

$$$$
>  <Compound>
Cc1ccnc2c1NC(=O)c1cccnc1N2C1CC1

>  <Obs Value>
Allergic

$$$$
>  <Compound>
CNC(=O)OCc1cccc(COC(=O)NC)n1 [PYRICARBATE]

>  <Obs Value>
Allergic

$$$$
>  <Compound>
O=C(CCCN1CCC(O)(c2ccc(Cl)cc2)CC1)c1ccc(F)cc1

>  <Obs Value>
Allergic

$$$$
>  <Compound>
O=C1Nc2ccc(Cl)cc2[C@@](C#CC2CC2)(C(F)(F)F)O1

>  <Obs Value>
Allergic

$$$$
>  <Compound>
COc1cc(/C=C/C(=O)O)ccc1O [FERULATE]

>  <Obs Value>
Dose-dependant

$$$$

---

Conditions: human
Metric Name: Hepatotoxicity (association with vascular disease)

>  <Molecule>
NC(CO)(CO)CO

>  <Obs Value>
0

$$$$
>  <Molecule>
FC(F)OC(F)C(F)(F)F (centres undefined)

>  <Obs Value>
0

$$$$
>  <Molecule>
CC(C)C(=O)Nc1ccc([N+](=O)[O-])c(C(F)(F)F)c1 [FLUTAMIDE]

>  <Obs Value>
0

$$$$
>  <Molecule>
CCCN(CCC)S(=O)(=O)c1ccc(C(=O)O)cc1

>  <Obs Value>
0

$$$$
>  <Molecule>
CC1=C(C/C=C(\C)CCC[C@H](C)CCC[C@H](C)CCCC(C)C)C(=O)c2ccccc2C1=O

>  <Obs Value>
0

$$$$
>  <Molecule>
CCOC(OCC)C(=O)OCC(=O)[C@]1(O)Cc2c(O)c3c(c(O)c2[C@@H](O[C@H]2C[C@H](N)[C@H](O)[C@H](C)O2)C1)C(=O)c1c(OC)cccc1C3=O

>  <Obs Value>
0

$$$$
>  <Molecule>
CC(=O)NCCCCCCNC(C)=O [HEXAMETHYLENEBISACETAMIDE]

>  <Obs Value>
0

$$$$
>  <Molecule>
C=C[C@H]1C[N@@]2CC[C@H]1C[C@H]2[C@H](O)c1ccnc2ccc(OC)cc12

>  <Obs Value>
0

$$$$
>  <Molecule>
Nc1ccc(S(N)(=O)=O)cc1 [SULFANILAMIDE]

>  <Obs Value>
0

$$$$

Attribution: ChEMBL document CHEMBL3137667
